Cited source: ChEMBL document CHEMBL5442219

- systemName: Alpha-2C adrenergic receptor (Homo sapiens) (UniProt P18825)
- Sequence (whole entry): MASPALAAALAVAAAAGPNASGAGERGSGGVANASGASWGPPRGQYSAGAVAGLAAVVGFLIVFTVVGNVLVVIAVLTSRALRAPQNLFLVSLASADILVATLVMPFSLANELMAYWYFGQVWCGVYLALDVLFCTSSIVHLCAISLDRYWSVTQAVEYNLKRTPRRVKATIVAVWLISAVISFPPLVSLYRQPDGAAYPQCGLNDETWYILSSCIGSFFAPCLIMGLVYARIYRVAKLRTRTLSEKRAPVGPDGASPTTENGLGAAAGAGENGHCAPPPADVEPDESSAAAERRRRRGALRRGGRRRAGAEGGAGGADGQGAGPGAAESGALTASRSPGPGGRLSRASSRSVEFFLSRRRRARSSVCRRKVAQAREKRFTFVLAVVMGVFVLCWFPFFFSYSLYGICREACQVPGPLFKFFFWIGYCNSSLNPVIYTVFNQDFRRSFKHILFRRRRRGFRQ
- recordedConditions: Compound concentration 10 µM
- Description: PDSP Primary Binding target: ADRA2C - Compounds are tested at 10 uM concentration, plate are incubated at room temperature in the dark for 90 minutes. Reaction are stopped by vacuum filtration onto 0.3% polyethyleneimine soaked filter mats using Filtermate harvester. Scintilation cocktail is then melted onto microwave-dried filters on a hot plate and the radio activity is counted in Microbia counter.
measuredMetric: inhibition (%)
Numbers only, in %.

Sample records with inhibition:
compoundStructureString	measuredMetric	quantitativeResult
CC1(C)SSC(C)(C)[C@@H](NC(=O)[C@@H](N)Cc2ccc(O)cc2)C(=O)NCC(=O)N[C@@H](Cc2ccccc2)C(=O)N[C@H]1C(=O)O	inhibition	-6.75
O=C(O)C1CN(Cc2ccc(OCc3ccc(Cl)c(Cl)c3)cc2)C1	inhibition	10
CCCn1c(=O)c2nc(C34CC5CC(CC3C5)C4)[nH]c2n(CCC)c1=O	inhibition	9.01

Let us examine a further case.
Q: Return inhibition for the following compound: O=C(Nc1ccc(Cl)cc1)Nc1cccc(-c2cccc(N3CCCC3)n2)c1
Result: -1.24

---

- systemName: 5-hydroxytryptamine receptor 2B (Homo sapiens)
- recordedConditions: Compound concentration 10 µM; call rule not given here
Please state which outcome applies, choosing from yes for active, no for inactive

Worked cases, answers included:
compound	systemName	qualitativeLabel
Clc1ccc(CCCOCCCN2CCCCC2)cc1	5-hydroxytryptamine receptor 2B (Homo sapiens)	no
Cc1cc(C)cc(C(=O)N(C)[C@H](Cc2ccc(-c3ccccc3)cc2)C(=O)N[C@@H](Cc2c[nH]c3ccccc23)C(=O)O)c1	5-hydroxytryptamine receptor 2B (Homo sapiens)	no
O=c1ccn([C@@H]2O[C@H](COP(=O)(O)OP(=O)(O)OP(=O)(O)O)[C@@H](O)[C@H]2O)c(=O)[nH]1	5-hydroxytryptamine receptor 2B (Homo sapiens)	no

Q: What did the test return for CCCCc1nc(Cl)c(CO)n1Cc1ccc(-c2ccccc2-c2nnn[nH]2)cc1 ?
Result: no

Q: What did the test return for O=C(O)C1CN(Cc2ccc(-c3nc4cc(Cc5ccccc5F)ccc4s3)c(F)c2)C1 ?
Result: no

Q: What did the test return for COc1ccc(CNC(=O)c2cc(-c3cncc(Cl)c3)cnc2-c2ccccn2)nc1OC ?
Result: no

Q: What did the test return for Cc1csc2c(N[C@@H](C)CN3CCN(S(=O)(=O)c4ccc(Cl)c(Cl)c4)CC3)ncnc12 ?
Result: no

---

- systemName: 5-hydroxytryptamine receptor 1E (Homo sapiens) (UniProt P28566)
- Sequence (P28566 whole entry): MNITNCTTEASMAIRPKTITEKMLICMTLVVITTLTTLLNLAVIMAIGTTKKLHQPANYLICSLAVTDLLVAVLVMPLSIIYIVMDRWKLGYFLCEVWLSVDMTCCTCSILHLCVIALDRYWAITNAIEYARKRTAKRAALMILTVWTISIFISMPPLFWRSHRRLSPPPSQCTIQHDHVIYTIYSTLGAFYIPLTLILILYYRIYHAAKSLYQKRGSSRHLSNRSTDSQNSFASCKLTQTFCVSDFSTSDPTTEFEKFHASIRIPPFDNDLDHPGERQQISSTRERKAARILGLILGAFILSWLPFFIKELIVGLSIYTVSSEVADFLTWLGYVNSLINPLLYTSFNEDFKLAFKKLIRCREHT
- recordedConditions: Compound concentration 10 µM; call rule not given here
Please state which outcome applies, choosing from class 1 for active, class 0 for inactive

Worked cases, answers included:
compoundStructureString	qualitativeLabel
Cc1cc(C)cc(-c2cnc3cc(Cl)c(-c4cccc(O)c4)cc3c2OCCCN)c1	class 1
CN(C)S(=O)(=O)c1ccc(NC(=S)N2CCC(C(O)(c3ccccc3)c3ccccc3)CC2)cc1	class 0
C[C@@H](N)Cc1c[nH]cn1	class 0
O=c1ccn([C@@H]2O[C@H](COP(=O)(O)OP(=O)(O)O)[C@@H](O)[C@H]2O)c(=O)[nH]1	class 0

Q: What did the test return for CC(C)(N)C(=O)N[C@H](COCc1ccccc1)C(=O)N1CCC2(CC1)CN(S(C)(=O)=O)c1ccccc12 ?
Result: class 0

Q: What did the test return for c1cc(CN2CCCNCCNCCCNCC2)ccc1CN1CCCNCCNCCCNCC1 ?
Result: class 0

Q: What did the test return for Cc1nn(C)c(C)c1-c1cccc2c1CC[C@H](N(C)C)C2 ?
Result: class 0

---

Kindly state inhibition for each of the entries shown.
- systemName: Sodium-dependent noradrenaline transporter (Homo sapiens) (UniProt P23975)
- Sequence (P23975 whole entry): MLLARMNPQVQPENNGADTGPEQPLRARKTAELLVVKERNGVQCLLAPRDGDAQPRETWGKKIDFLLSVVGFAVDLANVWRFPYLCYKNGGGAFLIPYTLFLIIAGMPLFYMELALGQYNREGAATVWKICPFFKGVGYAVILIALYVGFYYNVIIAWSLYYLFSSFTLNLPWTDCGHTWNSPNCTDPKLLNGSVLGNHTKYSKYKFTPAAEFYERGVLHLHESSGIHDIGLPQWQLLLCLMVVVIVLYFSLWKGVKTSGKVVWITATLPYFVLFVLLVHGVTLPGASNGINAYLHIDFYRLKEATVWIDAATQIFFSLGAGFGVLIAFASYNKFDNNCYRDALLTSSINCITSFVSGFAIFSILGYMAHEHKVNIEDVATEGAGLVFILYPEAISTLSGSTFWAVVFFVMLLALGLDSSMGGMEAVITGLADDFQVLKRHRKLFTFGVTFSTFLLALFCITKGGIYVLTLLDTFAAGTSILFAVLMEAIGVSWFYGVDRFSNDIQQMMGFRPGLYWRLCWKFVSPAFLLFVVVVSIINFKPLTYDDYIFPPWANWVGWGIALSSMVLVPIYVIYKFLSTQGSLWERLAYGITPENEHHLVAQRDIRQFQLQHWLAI
- recordedConditions: Compound concentration 10 µM
- Description: PDSP Primary Binding target: SLC6A2 - Compounds are tested at 10 uM concentration, plate are incubated at room temperature in the dark for 90 minutes. Reaction are stopped by vacuum filtration onto 0.3% polyethyleneimine soaked filter mats using Filtermate harvester. Scintilation cocktail is then melted onto microwave-dried filters on a hot plate and the radio activity is counted in Microbia counter.
Numbers only, in %.

Sample records with inhibition:
compoundStructureString	quantitativeResult
COc1cc2nc(N3CCN(C(=O)c4ccco4)CC3)nc(N)c2cc1OC	26.5
COc1ccc(Br)cc1S(=O)(=O)NC(=O)/C=C/c1ccccc1Cc1ccc2ccccc2c1	-0.94
N#Cc1ccc2[nH]cc(CCCCN3CCN(c4ccc5oc(C(N)=O)cc5c4)CC3)c2c1	98.1

Let us examine a further case.
Q: Return inhibition for the following molecule: NC[C@H](O)c1ccc(O)c(O)c1
Result: 15.2

---

- systemName: Beta-1 adrenergic receptor (Homo sapiens) (UniProt P08588)
- Sequence (P08588 whole entry, looked up): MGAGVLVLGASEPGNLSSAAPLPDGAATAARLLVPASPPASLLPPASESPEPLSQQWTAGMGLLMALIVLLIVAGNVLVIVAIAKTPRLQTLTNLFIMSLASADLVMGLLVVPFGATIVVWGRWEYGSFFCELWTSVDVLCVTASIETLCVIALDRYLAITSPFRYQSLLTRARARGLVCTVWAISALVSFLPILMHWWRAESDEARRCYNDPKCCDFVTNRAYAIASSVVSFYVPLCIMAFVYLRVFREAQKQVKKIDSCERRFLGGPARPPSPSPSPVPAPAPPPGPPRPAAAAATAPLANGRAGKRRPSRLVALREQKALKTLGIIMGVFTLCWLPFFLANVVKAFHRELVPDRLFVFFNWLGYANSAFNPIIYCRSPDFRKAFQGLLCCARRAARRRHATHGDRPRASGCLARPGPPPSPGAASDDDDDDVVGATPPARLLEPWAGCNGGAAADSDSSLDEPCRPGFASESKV
- recordedConditions: Compound concentration 10 µM
- Description: PDSP Primary Binding target: ADRB1 - Compounds are tested at 10 uM concentration, plate are incubated at room temperature in the dark for 90 minutes. Reaction are stopped by vacuum filtration onto 0.3% polyethyleneimine soaked filter mats using Filtermate harvester. Scintilation cocktail is then melted onto microwave-dried filters on a hot plate and the radio activity is counted in Microbia counter.
Kindly state inhibition for each of the entries shown.
Numbers only, in %.

compound	systemName	inhibition (%)
Cc1nnn(-c2ccc(-c3ccc(C4(C(=O)O)CC4)cc3)cc2)c1NC(=O)O[C@H](C)c1ccccc1	Beta-1 adrenergic receptor (Homo sapiens) (UniProt P08588)	-7.78
Cc1nc(-c2ccc(C(F)(F)F)cc2)sc1COc1ccc([C@H](CC(=O)O)c2ccon2)cc1	Beta-1 adrenergic receptor (Homo sapiens) (UniProt P08588)	24.6
NC[C@H](O)c1ccc(O)c(O)c1	Beta-1 adrenergic receptor (Homo sapiens) (UniProt P08588)	66.2

Record inhibition per entry; entries follow.
1. CN1C(=O)[C@@H](NC(=O)c2cc3ccccc3[nH]2)N=C(c2ccccc2)c2ccccc21
2. Cc1csc2c(N[C@@H](C)CN3CCN(S(=O)(=O)c4ccc(Cl)c(Cl)c4)CC3)ncnc12
3. O=c1ccn([C@@H]2O[C@H](COP(=O)(O)OP(=O)(O)OP(=O)(O)O)[C@@H](O)[C@H]2O)c(=O)[nH]1
4. COc1ccc2cc(S(=O)(=O)N[C@H](CC(=O)N[C@H](Cc3ccc(CN4[C@H](C)CCC[C@@H]4C)cc3)C(=O)N(C)C(C)C)c3ccc4c(c3)OCO4)ccc2c1
5. O=C(O)C1CN(Cc2ccc(OCc3ccc(Cl)c(Cl)c3)cc2)C1

Result:
1: 13.8; 2: 26.2; 3: -2.2; 4: -0.19; 5: -7.03

Record inhibition per entry; entries follow.
1. Cc1csc(NC(=O)c2cc(F)cc(Oc3cncnc3)c2)n1
2. Cc1cc(NC(=O)NCCN2CCC(O)(Cc3ccccc3)CC2)c2ccccc2n1
3. COc1ccc(C2(O)OC(=O)C(c3ccc4c(c3)OCO4)=C2Cc2cc(OC)c(OC)c(OC)c2)cc1 (stereo not drawn)

Result:
1. -2.16
2. 25.5
3. -2.63

Record inhibition per entry; entries follow.
1. Cc1cc(C)c(N)c(C#Cc2cccc(F)c2)n1
2. N#Cc1c(N)nc(SCc2csc(-c3ccc(Cl)cc3)n2)c(C#N)c1-c1ccc(OCCO)cc1

Result:
1: -7.35; 2: 26.8

---

- systemName: 5-hydroxytryptamine receptor 5A (Homo sapiens) (UniProt P47898)
- Sequence (P47898 whole entry): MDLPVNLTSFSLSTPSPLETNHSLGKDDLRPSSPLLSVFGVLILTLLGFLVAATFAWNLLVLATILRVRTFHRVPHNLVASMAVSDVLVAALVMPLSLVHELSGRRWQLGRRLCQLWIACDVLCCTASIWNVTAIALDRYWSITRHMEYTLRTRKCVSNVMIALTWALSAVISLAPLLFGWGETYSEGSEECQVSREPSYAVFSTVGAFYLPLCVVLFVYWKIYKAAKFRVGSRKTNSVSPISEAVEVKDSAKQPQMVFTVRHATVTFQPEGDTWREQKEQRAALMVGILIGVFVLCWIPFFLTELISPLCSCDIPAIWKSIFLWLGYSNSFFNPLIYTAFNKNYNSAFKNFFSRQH
- recordedConditions: Compound concentration 10 µM; call rule not given here
Please state which outcome applies, choosing from True for active, False for inactive

Worked cases, answers included:
compound	systemName	qualitativeLabel
NC[C@@H]1O[C@H](C23CC4CC(CC(C4)C2)C3)Cc2c1ccc(O)c2O	5-hydroxytryptamine receptor 5A (Homo sapiens) (UniProt P47898)	False
CC(C)NCC(O)COc1ccc(CCOCC2CC2)cc1 (stereo unspecified)	5-hydroxytryptamine receptor 5A (Homo sapiens) (UniProt P47898)	False
COc1ccc(S(=O)(=O)c2cc(OC)ccc2S(=O)(=O)c2ccc([C@H](C)NS(C)(=O)=O)cc2)cc1	5-hydroxytryptamine receptor 5A (Homo sapiens) (UniProt P47898)	False
CN1CCCC(n2nc(Cc3ccc(Cl)cc3)c3ccccc3c2=O)CC1 (stereo unspecified)	5-hydroxytryptamine receptor 5A (Homo sapiens) (UniProt P47898)	True
N=C(N)SCCc1c[nH]cn1	5-hydroxytryptamine receptor 5A (Homo sapiens) (UniProt P47898)	False

Q: What did the test return for COc1ccc(S(=O)(=O)N2c3ccc(Cl)cc3[C@](O)(c3ccccc3Cl)[C@@H]2C(=O)N2CCC[C@H]2C(N)=O)cc1OC ?
Result: False

Q: What did the test return for CSc1ccc(C(=O)N[C@@H]2CCCC[C@@H]2NC(=O)CNC(=O)c2cc(C(F)(F)F)ccc2NC(=O)NC(C)C)cc1 ?
Result: False

Q: What did the test return for Cc1nc(-c2ccc(-c3ccc(C(=O)N4CCc5cc6c(cc54)C4(CCN(C)CC4)CO6)cc3)c(C)c2)no1 ?
Result: False

Q: What did the test return for C[N+]1(C)[C@@H]2C[C@@H](OC(=O)C(O)(c3cccs3)c3cccs3)C[C@H]1[C@@H]1O[C@@H]12 ?
Result: False

Q: What did the test return for N[C@H](C(=O)O)c1ccc(C(=O)O)c(C(=O)O)c1 ?
Result: False

Q: What did the test return for Cc1cc(C)cc(-c2cnc3cc(Cl)c(-c4cccc(O)c4)cc3c2OCCCN)c1 ?
Result: True

Q: What did the test return for N#Cc1c(N)nc(SCc2csc(-c3ccc(Cl)cc3)n2)c(C#N)c1-c1ccc(OCCO)cc1 ?
Result: False
